Target: Metabotropic glutamate receptor 8 (Rattus norvegicus) (UniProt P70579)
Sequence (P70579 whole entry, looked up): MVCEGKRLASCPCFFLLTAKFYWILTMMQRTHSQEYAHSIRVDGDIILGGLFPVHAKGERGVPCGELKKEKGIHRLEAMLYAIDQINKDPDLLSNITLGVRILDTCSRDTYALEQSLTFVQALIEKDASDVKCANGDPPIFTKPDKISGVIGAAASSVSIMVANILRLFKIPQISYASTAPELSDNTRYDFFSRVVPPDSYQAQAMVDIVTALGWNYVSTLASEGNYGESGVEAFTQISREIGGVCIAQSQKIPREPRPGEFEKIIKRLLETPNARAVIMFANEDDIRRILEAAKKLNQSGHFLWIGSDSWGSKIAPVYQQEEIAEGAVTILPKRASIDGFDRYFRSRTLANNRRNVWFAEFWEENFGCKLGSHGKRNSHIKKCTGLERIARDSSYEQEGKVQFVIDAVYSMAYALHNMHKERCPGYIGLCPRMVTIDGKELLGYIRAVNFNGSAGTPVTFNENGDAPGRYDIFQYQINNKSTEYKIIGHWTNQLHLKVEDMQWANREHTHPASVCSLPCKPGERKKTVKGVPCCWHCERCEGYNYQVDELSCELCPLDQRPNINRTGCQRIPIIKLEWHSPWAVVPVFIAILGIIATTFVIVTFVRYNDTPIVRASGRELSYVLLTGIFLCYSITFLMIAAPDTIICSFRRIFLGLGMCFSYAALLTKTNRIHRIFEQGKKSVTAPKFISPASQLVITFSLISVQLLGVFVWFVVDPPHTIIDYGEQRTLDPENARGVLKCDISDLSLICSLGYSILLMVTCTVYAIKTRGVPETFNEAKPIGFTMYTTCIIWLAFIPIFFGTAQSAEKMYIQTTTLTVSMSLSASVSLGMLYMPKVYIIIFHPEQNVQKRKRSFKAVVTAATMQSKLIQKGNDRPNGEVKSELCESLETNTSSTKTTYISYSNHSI
Test: mGluR8 Gi/Go-coupled signaling modulation – cell-based, rat, thallium flux, HTS, primary screen (AID 488969)
Conditions: HEK293 rat mGluR8, GIRK thallium flux, FluoZin2; at 10 µM; stronger effect = higher value; submaximal glutamate (EC20) added with thallium
In all, about 110,000 compounds were measured (“z-score”: median about -0.1, highest 2% from about 2 on). This is one part of a sample in which the highest values are shown more often than they occur.
Can you tell me z-score for the items I'm about to list?
Numbers only.

The cases that follow already have their z-score on record.
CC(C)OC(=O)c1cccnc1N1CCN(c2ccc(F)cc2)CC1; -0.216
CCCCc1ccc(Nc2ncnc3nc[nH]c23)cc1; 2.82
CCCCn1c(=S)[nH]c2c(oc3ccc(Cl)cc32)c1=O; 13.1
O=C(Nc1nc(-c2ccccc2)c(-c2ccccc2)o1)c1ccc(F)cc1; 13.5
CCOc1ccc(-n2nnnc2SCC(=O)N2CCOCC2)cc1; -0.126

Batch of 7 compounds: report z-score for each.
1. Cc1nn(-c2ccccc2)c(C)c1/C=N/NC(=O)c1cc(-c2cccc3ccccc23)n[nH]1
2. Cc1ccc(C(=O)NC(=S)Nc2ccc(Oc3ccc(Cl)cc3)cc2)cc1
3. Cc1ccc(OS(=O)(=O)c2ccccc2)c(/C=N/N=C2\NC(=O)C(C)S2)c1 (centres undefined)
4. CCCCn1c(SCC(=O)Nc2ccccc2C(F)(F)F)nc2ccsc2c1=O
5. CCN(CC)CCCN1C(=O)c2oc3ccccc3c(=O)c2C1c1cc(OC)ccc1OC (centres undefined)
6. O=C1NC(=Nc2cccc(Cl)c2)SC1Cc1cccc(Cl)c1Cl (centres undefined)
7. CCOc1ccc(Cn2ccnc2CCl)cc1[N+](=O)[O-]

1. -0.481
2. 0.157
3. -0.426
4. 0.00651
5. 0.517
6. -0.324
7. -0.00871

Can you give me z-score for all of these, one by one?
1. COc1cc(OC)cc(-n2nnnc2SCC(=O)N2CCCC2)c1
2. CCOC(=O)c1c(-c2ccc(C)o2)csc1NC(=O)CSc1nnc(C)s1
3. Cc1cc(C)c2c(c1)-c1c(ssc1=S)C(C)(C)N2C(=O)CN1C(=O)c2ccccc2C1=O

0.154
-1.11
0.383

Batch: z-score for all items listed.
1. CCOC(=O)c1c(-c2ccc(C)o2)csc1NC(=O)CN(C)CC(=O)Nc1ccc(C)cc1
2. CCOC(=O)c1c(-c2ccc(C)o2)csc1NC(=O)COC(=O)c1cccs1
3. CCOP(=O)(OCC)C(Nc1ccccn1)c1ccc(F)cc1 (centres undefined)
4. CCN(CC(=O)Nc1cccc(OC)c1)c1ncnc2sc(C)c(C)c12
5. CCN(CC)CCCn1c(=S)[nH]c2cc(OC)c(OC)cc2c1=O

1. -0.104
2. 0.191
3. -0.18
4. -0.125
5. -0.0622

----------
Target: Metabotropic glutamate receptor 8 (Rattus norvegicus) (UniProt P70579)
Assay: mGluR8 Gi/Go-coupled signaling modulation – cell-based, rat, thallium flux, HTS, primary screen (AID 488969)
Conditions: HEK293 rat mGluR8, GIRK thallium flux, FluoZin2; at 10 µM; stronger effect = higher value; submaximal glutamate (EC20) added with thallium
The full ranking holds about 110,000 compounds; the median of “z-score” is about -0.1, and the highest 2% start at about 2. Shown is part of a subset that was picked to be rich in the highest values.
I would appreciate it if you labelled entries T when z-score is 0.2 or higher, otherwise F.

Known results for compounds:
Cn1c(=O)[nH]c(=O)c2c1nc(NCCCn1ccnc1)n2Cc1ccc(F)cc1; T
COc1cc(NC(=O)COC(=O)CNC(=O)c2ccc(Cl)cc2)c(C)cc1[N+](=O)[O-]; F
COc1ccc(NC(=O)CSc2nnc(Cc3cccn3C)n2-c2ccc(C)cc2)cc1OC; T
S=C(Nc1ccccc1)Nc1ccc(OCc2ccc(Cl)cc2Cl)cc1; F
CC1CC1C(=O)OCC(=O)NC(=O)NCc1ccco1 (stereo not drawn); F
Fc1ccc(CNC(=S)Nc2ccc(Cl)cc2)cc1; T
Cc1ccc(-c2nc3ncccc3o2)cc1NC(=O)Cc1ccc(Cl)cc1; T
CC(C)(C)NC(=O)CSc1nccn1Cc1ccccc1; T
COc1cc(/C=N/O)c(Br)cc1OCC(=O)Nc1ccccc1C; F
COC(=O)c1ccc(NC(=O)CSc2nnc(COc3ccccc3)n2C)cc1; T

Dear colleague, could you confirm whether COC(=O)c1cccc(NC(=O)CSc2nnc(COc3ccccc3)n2C)c1 has z-score at or above 0.2? F

Quick check: does O=C(NCCN1CCCCC1)c1ccco1 have z-score greater than or equal to 0.2? F

Tell me whether z-score is at least 0.2 here: C=CCNc1cnn(CC(C)=O)c(=O)c1Br F

Say whether COc1ccc(OC)c(NC(=O)CSc2ncccn2)c1 shows z-score of 0.2 or more. F

Identify whether the reported z-score of the following compound is 0.2 or greater: Clc1ccc2c(NNc3ccccc3Cl)ccnc2c1 F

Please indicate if the recorded z-score for S=C(NCCSCc1ccc(Cl)cc1Cl)Nc1ccccc1 meets or exceeds 0.2. F

----------
Molecular target: Metabotropic glutamate receptor 8 (Rattus norvegicus)
Assay: mGluR8 Gi/Go-coupled signaling modulation – cell-based, rat, thallium flux, HTS, primary screen (AID 488969)
Settings: HEK293 rat mGluR8, GIRK thallium flux, FluoZin2; at 10 µM; stronger effect = higher value; submaximal glutamate (EC20) added with thallium
Over roughly 110,000 compounds, “z-score” has its median near -0.1; the highest 2% begin near 2. Many of the other results were omitted from the sample, so the highest values are more common in it than they were.
quantity_kind: z-score
Give bare numbers.

// known answers, use as guide
Cc1ccc(C2=[N+]([O-])C3(CCCCC3=O)N(O)C2(C)C)cc1 (stereo unspecified); 0.0871
COC(=O)CSc1n[nH]c(-c2ccncc2)n1; 0.0349
COC(=O)CSc1n[nH]c(-c2cccnc2)n1; 2.21
O=C(CSc1n[nH]c(-c2cccnc2)n1)Nc1ccccc1; -0.272
O=c1c2ccccc2nc(N/N=C/c2ccc(O)cc2)n1O; -0.0395

z-score for N#Cc1c(N)nc2c(c1-c1ccncc1)CCCC2 ? -0.232

----------
Target: Metabotropic glutamate receptor 8 (Rattus norvegicus)
Experiment: mGluR8 Gi/Go-coupled signaling modulation – cell-based, rat, thallium flux, HTS, primary screen (AID 488969)
Conditions: HEK293 rat mGluR8, GIRK thallium flux, FluoZin2; at 10 µM; stronger effect = higher value; submaximal glutamate (EC20) added with thallium
Whole data set: some 110,000 compounds, median “z-score” near -0.1, cut for the highest 2% near 2. The sample as a whole holds a higher share of the highest values than the screen did.
What z-score was measured for each of the following?
Numbers only.

Some solved entries appear below for comparison.
CCCCOc1ccc(C(C)NC(=O)CCS(=O)(=O)Cc2ccccc2Cl)cc1 (stereo unspecified); 0.131
O=S(=O)(N/N=C/c1ccc(OC2CSC2)cc1)c1ccccc1; -0.00217
Cc1ccc(S(=O)(=O)Nc2ccc3c(c2)CCC3)cc1; -0.101

# map each molecule to its z-score
1. CCOC(=O)c1nnn(CC(=O)Nc2cccc(Cl)c2C)c1C(=O)OCC
2. O=C(CCCn1c(=S)[nH]c2cc3c(cc2c1=O)OCO3)N1CCN(C2CCCCC2)CC1
3. Cc1ccc(S(=O)(=O)N2Cc3ccccc3CC2C(=O)Nc2ccc3c(c2)OCO3)cc1 (stereo unspecified)
4. Cc1ccc(S(=O)(=O)N2CC(O)CC2C(=O)Nc2ccc3c(c2)CCC3)cc1 (stereo unspecified)

[2.12, -0.008, -0.0374, 2.07]

Please state z-score for every molecule in the list that follows.
1. COc1ccc2cc(C(c3nnnn3C3CCCCC3)N3CCCCCC3)c3nnnn3c2c1 (stereo unspecified)
2. COc1cc(-c2nc3ccccc3c(=O)n2N)cc(OC)c1OC
3. CCOC(=O)c1nnn(CC(=O)Nc2ccccc2OC)c1C(=O)OCC
4. COCCCNCCCCOc1cccc(Br)c1

1. -0.929
2. -0.0215
3. -0.326
4. 0.266

----------
Target: Metabotropic glutamate receptor 8 (Rattus norvegicus)
Experiment: mGluR8 Gi/Go-coupled signaling modulation – cell-based, rat, thallium flux, HTS, primary screen (AID 488969)
Conditions: HEK293 rat mGluR8, GIRK (G protein-gated inwardly rectifying potassium channel) thallium flux, FluoZin2; at 10 µM; stronger effect = higher value; submaximal glutamate (EC20) added with thallium
Over roughly 110,000 compounds, “z-score” has its median near -0.1; the highest 2% begin near 2. The entries come from a sample that favours the highest values as a whole.
Short version: z-score at least -0.3 is satisfied, less is not satisfied.

Cc1cccc(NC(=S)NCC23C=CC(O2)C2C(=O)N(c4ccc(Cl)cc4)C(=O)C23)c1 (stereo unspecified); not satisfied
CN=Cc1sc2ccccc2c1O; satisfied
Cc1cc(C)n(C(=O)c2ccc(C)c(F)c2F)n1; satisfied
Clc1cccc(Cl)c1Cn1cnc(=NCc2ccco2)c2[nH]cnc21; not satisfied
Oc1c(C=Nc2cccnc2)sc2ccccc12; not satisfied

Please find the next molecule below.
# bool: z-score of COC(=O)N/N=C/c1cc(C)n(-c2cccc3ccccc23)c1C >= -0.3 satisfied
